Please provide measured GI50 for the entries that follow.
Test system: Malme-3M
Assay: NCI tumour cell line growth inhibition, 48 h
Active and inactive are the calls of the source. No stated cut-off is given here; in the data, active = GI50 up to about 1.1 µM and inactive = higher.

Example entries begin here.
| smiles | target-or-system | data-value |
| --- | --- | --- |
| Nc1cc2c3c(cccc3c1)C(=O)N(c1ccc(OCCN3CCCC3)cc1)C2=O | Malme-3M | 17.7 µM (inactive) |
| CCCCCCCCCCCCCP(=O)(OC)OC | Malme-3M | 22.5 µM (inactive) |
| CN(CCNC(=O)c1cn(C)c2c1ccc1ccccc12)CCNC(=O)c1cn(C)c2c1ccc1ccccc12 | Malme-3M | 2.14 µM (inactive) |
| CC(=O)Nc1ccc2cc(C#N)c(=O)[nH]c2n1 | Malme-3M | > 100 µM (inactive) |
| Cc1cc(C)c(S(=O)(=O)N(CCCCN)OCCCN)c(C)c1 | Malme-3M | 20.9 µM (inactive) |

Kindly consider the entry below.
input: // GI50 lookup, key: `CC[N+](CC)(CC)Cc1cc2ccccc2n1C(=O)OC`
output: > 100 µM (inactive)

* * *

Please provide measured GI50 for the entries that follow.
System: SNB-19
Assay: NCI tumour cell line growth inhibition, 48 h
Active and inactive are the calls of the source. No stated cut-off is given here; in the data, active = GI50 up to about 1.1 µM and inactive = higher.

Example entries begin here.
| compound | target-or-system | readout-type | data-value |
| --- | --- | --- | --- |
| CCCCCCCCC(O)c1ccc(/C=C\C(O)CCCC(=O)O)s1 (stereo not drawn) | SNB-19 | GI50 | > 100 µM (inactive) |
| C=CCCC(=O)C(=[N+]=[N-])C(=O)CCC(=O)c1ccccc1 | SNB-19 | GI50 | > 10 µM (inactive) |

input: // GI50 lookup, key: COc1ccccc1Cc1nc(-c2ccccc2)nn(C2OC(COC(C)=O)C(OC(C)=O)C(OC(C)=O)C2OC(C)=O)c1=S (stereo not drawn)
output: 5.75 µM (inactive)

* * *

Tested on: RPMI-8226
Test: NCI tumour cell line growth inhibition, 48 h
Active and inactive are the calls of the source. No stated cut-off is given here; in the data, active = GI50 up to about 1.1 µM and inactive = higher.
Lab note: assign the record to one of label 1 = active, label 0 = inactive

| compound | group |
| --- | --- |
| CN(C)c1ccc(/C=C2\C[C@H]3[C@@H]4CC=C5C[C@@H](N6CCCC6)CC[C@]5(C)[C@H]4CC[C@]3(C)[C@H]2O)cc1 | label 1 |
| COc1ccccc1Cc1nc(-c2ccccc2)nn(C2OC(COC(C)=O)C(OC(C)=O)C(OC(C)=O)C2OC(C)=O)c1=S (stereo not given) | label 0 |
| O=C(/C=C\c1cccc2ccccc12)c1ccc(F)cc1 | label 0 |
| COC(=O)Nc1nc2cc(S(=O)(=O)N3CCOCC3)ccc2[nH]1 | label 0 |

Please turn your attention to the following entry.
input: In this assay, the call recorded for COc1ccc(N2C(=O)CC(C3CC(C(C)(C)C)CCC3=O)C2=O)cc1 (stereo not given) was what?
output: label 0

* * *

Test system: TK-10
Assay: NCI tumour cell line growth inhibition, 48 h
The source made the active and inactive calls. Cut-off read from the data, not from the text of the source: active = GI50 up to about 1.1 µM and inactive = higher.
Please provide measured GI50 for the entries that follow.

Example entries begin here.
| molecule | readout-type | data-value |
| --- | --- | --- |
| CC(C)=CCC[C@](C)(O[C@@H]1O[C@H](CO)[C@@H](O)[C@H](O)[C@H]1O)[C@H]1CC[C@]2(C)[C@@H]1[C@H](O)C[C@@H]1[C@@]3(C)CC[C@H](O)C(C)(C)[C@@H]3[C@@H](O[C@@H]3O[C@H](CO)[C@@H](O)[C@H](O)[C@H]3O)C[C@]12C [GINSENOSIDE RG1] | GI50 | > 100 µM (inactive) |
| Cc1ccc(N2C=Nn3c(nc4sc5c(c4c3=O)CCCC5)C2)cc1 | GI50 | 86.1 µM (inactive) |

Below are 4 molecules. Give each one its GI50.
1. Cc1ccc2[nH]c(Sc3c([N+](=O)[O-])ncn3C)nc2c1
2. Cc1nc2ccncc2[nH]1
3. CN1N=C2c3ccccc3CC[C@H]2C1c1ccccc1 (stereo partly drawn)
4. O=C1C[C@H](COCc2ccccc2)NC(=O)C[C@H](COCc2ccccc2)NC(=O)C[C@H](COCc2ccccc2)N1

output:
44.9 µM (inactive)
> 100 µM (inactive)
> 100 µM (inactive)
18.1 µM (inactive)

Below are 2 molecules. Give each one its GI50.
1. COc1ccccc1/C=C1\C(=O)N(C(=O)Cc2ccccc2)N=C1C
2. COc1cc2c(c(OC)c1)C(C)=NC(C)C2 (stereo not drawn)

output:
1. > 100 µM (inactive)
2. > 100 µM (inactive)
